Target: Aspergillus niger heat-labile phosphatase (4-nitrophenylphosphatase), purified, strain NRRL-3
Assay: A. niger phosphatase activity assay with 4-NPP as substrate (formation of p-nitrophenol at 400 nm)
Conditions: competitive inhibition of hydrolysis of 4-NPP; read-out: Ki for ATP
Measure Name: Ki (mM)
The reply should be a number in mM, with the unit left off.

Problem: I would be grateful if you could share the reported Ki for Nc1ncnc2c1ncn2[C@@H]1O[C@H](COP(=O)(O)OP(=O)(O)OP(=O)(O)O)[C@@H](O)[C@H]1O [ATP, adenosine triphosphate] .
Result: 1.3

Sourced from patent US5432064A
